test system: primary CD34+ AML cells from relapsed/refractory patients; experiment: Cytotoxic activity on primary AML cells, CellTiter-Glo; type: cell-based, human; conditions: Homo sapiens, 72 h, D2; AML CD34+ PB0142 cells; Fab-PE24 constructs, 3 days
measure_name: IC50 (nM)
Express it in nM; write the number only.

Prompt line: Given the entry C[C@@H]1C[C@@H]([C@H](O)CC2CC(=O)NC(=O)C2)C(=O)[C@@H](C)C1 [Cycloheximide] , report its measured IC50.
Response line: 262

====

system: Pfeiffer cells; assay: Cytotoxic activity, CellTiter-Glo Luminescent Cell Viability Assay; conditions: Homo sapiens, Pfeiffer, Fab-PE24 construct vs. total IgG-Amatoxin conjugate
measure_name: pIC50
# log scale: pIC50 equals minus log10 of the concentration in mol/L

Prompt line: Given the entry C[C@@H]1C[C@@H]([C@H](O)CC2CC(=O)NC(=O)C2)C(=O)[C@@H](C)C1 [Cycloheximide] , report its measured pIC50.
Response line: 6.79
